# Tested on: Caco-2
# assay_explanation: drug sensitivity score (DSS) for viability; higher = more toxic; extreme values may be limits of the assay
# test_conditions: 72 h
Please go through the items and note down their drug sensitivity score.
One number for each entry.

1) C=CCSCC1Nc2cc(Cl)c(S(N)(=O)=O)cc2S(=O)(=O)N1 (stereo not drawn) [althiazide] = 0

Batch request: drug sensitivity score per item, same order as input.
1. O=C1c2ccccc2C(Cc2ccncc2)(Cc2ccncc2)c2ccccc21
2. Nc1nc(Nc2ccccc2)nc2c1ncn2[C@@H]1O[C@H](CO)[C@@H](O)[C@H]1O
3. Cc1nn(C)c2nc(NNC(=O)Nc3cc(Cl)nc(Cl)c3)cc(C(C)C)c12
4. CC[C@H](C)C(=O)O[C@H]1C[C@@H](C)C=C2C=C[C@H](C)[C@H](CC[C@@H]3C[C@@H](O)CC(=O)O3)[C@H]21

Out:
1. 0
2. 0
3. 0.4
4. 0

* * *

# Tested on: Calu-3
# assay_explanation: cell viability relative to DMSO; higher = less toxic
# test_conditions: 72 h; 1000 nM
value_type: cell viability (%)
One number for each entry, in %.

// below: answered compounds
1. Cc1ccc(S(=O)(=O)Nc2ccc3c(c2)c(C(=O)C(F)(F)F)cn3CC(=O)N[C@@H](CC(C)C)C(=O)O)cc1 [NTRC-824] = 102
2. C=CC(=O)Nc1cccc(Oc2nc(Nc3ccc(N4CCN(C)CC4)cc3OC)ncc2Cl)c1 [WZ-4002] = 88.6

Provide cell viability values for the following items, in order.
1. Cl/C(=C\n1cncn1)c1ccc(Cl)cc1Cl [loreclezole]
2. Nc1nc(Nc2ccccc2)nc2c1ncn2[C@@H]1O[C@H](CO)[C@@H](O)[C@H]1O [CV-1808]

Out:
1. 113
2. 110

Give me cell viability for each of these compounds, listed below.
1. Cc1cc(NC(=O)C2=C(O)c3ccccc3S(=O)(=O)N2C)no1 [isoxicam]
2. CN(C)N(C)C(=O)[C@@]1(Cc2ccccc2)CCCN(C(=O)[C@@H](Cc2c[nH]c3ccccc23)NC(=O)C(C)(C)N)C1 [anamorelin]
3. Cc1ccsc1/C=C/C1=NCCCN1C [morantel]
4. CC(=O)Oc1ccccc1C(=O)Oc1cccc(CO[N+](=O)[O-])c1 [NO-ASA]

Out:
98.1
94.4
101
103

Reported cell viability of COc1cc(O)c2c(c1)C(=O)c1cc(C)cc(O)c1C2=O [rheochrysidin] : 101

* * *

# System: Vero E6
# assay_explanation: drug sensitivity score (DSS) for viability; higher = more toxic; extreme values may be limits of the assay
# test_conditions: 72 h
Give measured drug sensitivity score for each item. Keep answers brief.

As a guide, the following entries are already answered.
1. CC(C)(CO)c1cc2cc(NC(=O)C3(c4ccc5c(c4)OC(F)(F)O5)CC3)c(F)cc2n1C[C@@H](O)CO = 0
2. CC(=O)N(O)C/C=C/c1cccc(Oc2ccccc2)c1 = 0
3. NC(CO)C(=O)NNCc1ccc(O)c(O)c1O (centres undefined) [benserazide] = 0
4. CCOC(=O)Nc1ccc(NCc2ccc(F)cc2)nc1N = 0
5. Fc1ccccc1-c1nc2ccn(Cc3ccc(-c4ccc(C(F)(F)F)cc4C(F)(F)F)nn3)cc-2n1 = 0

Batch lookup, drug sensitivity score per entry.
1. CCNC(=O)c1n[nH]c(-c2cc(Cl)c(O)cc2O)c1-c1ccc(OC)cc1
2. CC1(CN)Cc2ccccc2C1
3. C[C@@H]1CN(c2c(F)c(F)c3c(=O)c(C(=O)O)cn(C4CC4)c3c2F)C[C@H](C)N1
4. Nc1nnc(Sc2ncc([N+](=O)[O-])s2)s1

Out:
1. 6.5
2. 0
3. 0
4. 6.1

* * *

Could you please report measured cell viability for the items listed next?
# System: Caco-2
# assay_explanation: cell viability relative to DMSO; higher = less toxic
# test_conditions: 72 h; 1000 nM
One number for each entry, in %.

Reference set (2 entries):
1. N#Cc1ccc(C(c2ccc(C#N)cc2)n2cncn2)cc1 [letrozole] = 105
2. O=C1OC(OC(=O)c2cccnc2Nc2cccc(C(F)(F)F)c2)c2ccccc21 (stereo not drawn) [talniflumate] = 102

In the following, a different compound is considered.
Entry under test: Oc1cccc(-c2c3nc(c(-c4cccc(O)c4)c4ccc([nH]4)c(-c4cccc(O)c4)c4nc(c(-c5cccc(O)c5)c5ccc2[nH]5)CC4)C=C3)c1 [temoporfin] . Its cell viability was 94.4

* * *

# Tested on: Calu-3
# assay_explanation: cell viability relative to DMSO; higher = less toxic
# test_conditions: 72 h; 1 nM
value_type: cell viability (%)
One number for each entry, in %.

Worked cases, cell viability given:
1. Cc1c(N)nc([C@H](CC(N)=O)NC[C@H](N)C(N)=O)nc1C(=O)N[C@H](C(=O)N[C@H](C)[C@@H](O)[C@H](C)C(=O)N[C@H](C(=O)NCCc1nc(-c2nc(C(=O)NCCC[S+](C)C)cs2)cs1)[C@@H](C)O)[C@@H](OC1OC(CO)C(O)C(O)C1OC1OC(CO)C(O)C(OC(N)=O)C1O)c1cnc[nH]1 (stereo partly specified) = 102
2. COCCOc1ccc(N2CCN(CCn3ncc4c3nc(N)n3nc(-c5ccco5)nc43)CC2)cc1 = 106
3. CO/N=C(\C(=O)N[C@@H]1C(=O)N2C(C(=O)[O-])=C(C[n+]3ccn4ncccc43)CS[C@H]12)c1nsc(N)n1 = 102
4. CC(=O)Nc1ccc(C(=O)Nc2ccccc2N)cc1 = 101
5. CC(=O)Nc1ccc(CC(=O)O)cc1 = 105
6. C[C@@H]1CN(Cc2ncccn2)C[C@H]1c1nc2c(cnn2C2CCOCC2)c(=O)[nH]1 = 98.5
7. COC(=O)C[C@](O)(CCCC(C)(C)O)C(=O)O[C@@H]1C(OC)=C[C@]23CCCN2CCc2cc4c(cc2[C@H]13)OCO4 = 93.4
8. NS(=O)(=O)c1ccc(C(=O)O)cc1 [carzenide] = 106

For every item below, please supply its cell viability.
1. NC(=O)NCCN1CCN(c2cccc(C(F)(F)F)c2)CC1
2. Cc1ncc(C[n+]2csc(CCOP(=O)(O)OP(=O)(O)O)c2C)c(N)n1 [thiamine-pyrophosphate]
3. CS(=O)(=O)c1ccc(-c2cc(Br)sc2-c2ccc(F)cc2)cc1
4. N#Cc1ccc(C(c2ccc(C#N)cc2)n2cncn2)cc1

Out:
105
98.5
97.2
97.1

State the recorded cell viability for every item in the following list.
1. COC(=O)[C@H]1[C@H]2C[C@@H]3c4[nH]c5cc(OC)ccc5c4CCN3C[C@H]2C[C@@H](OC(=O)c2cc(OC)c(OC)c(OC)c2)[C@@H]1OC
2. [O-][n+]1cccc(CO)c1 [mepiroxol]
3. COc1cc(O)c2c(c1)C(=O)c1cc(C)cc(O)c1C2=O
4. O=C(O)Cn1nnc(-c2cc(N3CCC(Oc4cc(F)ccc4Br)CC3)no2)n1

Out:
[107, 103, 101, 102]

* * *

# Tested on: U2OS
# assay_explanation: cell viability relative to DMSO; higher = less toxic
# test_conditions: 72 h; 1 nM
value_type: cell viability (%)
One number for each entry, in %.

Here are 5 molecules together with their reported answers.
1. NC1=NCC2c3ccccc3Cc3ccccc3N12 (centres undefined) [epinastine] = 97
2. C[C@]12CC[C@@H]3c4ccc(O)cc4CC[C@H]3[C@@H]1C[C@@H](O)[C@@H]2O = 99.3
3. C[C@@H](c1nc(-c2ccc(C#N)cc2)cs1)[C@](O)(Cn1cncn1)c1ccc(F)cc1F = 101
4. Nc1ncnc2c1ncn2[C@@H]1O[C@H](COP(=O)(O)O)[C@@H](O)[C@H]1O [adenosine-phosphate] = 97.9
5. c1ccc2c(c1)CN1CCCC1=N2 = 98.7

Hey, can you go through the list below and give me cell viability for every item?
1. Oc1cc2c(cc1O)CN(C(=S)NCCc1ccc(Cl)cc1)CCC2 [capsazepine]
2. Fc1ccccc1-c1nc2ccn(Cc3ccc(-c4ccc(C(F)(F)F)cc4C(F)(F)F)nn3)cc-2n1
3. Cc1cc(C)c(NC(=O)N(Cc2ccc3c(c2)Cc2ccccc2-3)C2CCCCCC2)c(C)c1
4. CNCCCN1c2ccccc2CCc2ccccc21

Out:
1: 98.2; 2: 101; 3: 97.8; 4: 104

* * *

# System: Calu-3
# assay_explanation: cell viability relative to DMSO; higher = less toxic
# test_conditions: 72 h; 10 nM
value_type: cell viability (%)
Numbers only, in %.

1. CN1CCN(c2cc3c(cc2F)c(=O)c(C(=O)O)cn3-c2ccc(F)cc2)CC1 [difloxacin] = 90.1
2. Nc1nc(Nc2ccccc2)nc2c1ncn2[C@@H]1O[C@H](CO)[C@@H](O)[C@H]1O [CV-1808] = 106
3. CC(C)c1cnn2c(NCc3ccccc3)cc(NCCCCCCN)nc12 [BS-181] = 106

For each of the items listed, what is its cell viability?
1. Cc1[nH]c(/C=C2\C(=O)Nc3cc(-c4ccccc4)ccc32)c(C)c1CCC(=O)O [SU16f]
2. CC(=O)C1=C(O)[C@@H]2[C@H]3c4c[nH]c5cccc(c45)C[C@H]3C(C)(C)N2C1=O [cyclopiazonic-acid]
3. O=C(O)/C=C/c1ccc(Cn2ccnc2)cc1 [ozagrel]
4. [O-][n+]1cccc(CO)c1 [mepiroxol]
5. COc1cccc(OC)c1C(=O)N[C@@H]1C(=O)N2[C@@H]1SC(C)(C)[C@@H]2C(=O)O [methicillin]
6. CN1CCC(=C2c3ccccc3CC(=O)c3sccc32)CC1 [ketotifen]
7. CC(=O)O[C@H]1C[C@@H]2CC[C@@H]3[C@H](CC[C@@]4(C)[C@H]3C[C@H](N3CC[N+](C)(C)CC3)[C@@H]4OC(C)=O)[C@@]2(C)C[C@@H]1N1CC[N+](C)(C)CC1 [pipecuronium]
8. Cc1cc([C@@H](C)Nc2ccccc2C(=O)O)c2nc(N3CCOCC3)cc(=O)n2c1 [AZD6482]

Out:
108
98.1
100
112
99.1
93
102
105

For every item below, please supply its cell viability.
1. C=CCSCC1Nc2cc(Cl)c(S(N)(=O)=O)cc2S(=O)(=O)N1 (configuration not stated) [althiazide]
2. Cn1cc(C2=C(c3ccc(Cl)cc3Cl)C(=O)NC2=O)c2ccccc21
3. CN(C)[C@@H]1C(O)=C(C(N)=O)C(=O)[C@@]2(O)C(O)=C3C(=O)c4c(O)ccc(Cl)c4[C@@H](O)[C@H]3C[C@@H]12 [demeclocycline]

Out:
[94.8, 108, 115]

Hey, quick one: what's cell viability for each of these?
1. Nc1nccc(Oc2ccc(NC(=O)c3c[nH]cc(-c4ccc(F)cc4)c3=O)cc2F)c1Cl [metatinib]
2. CN(Cc1cc(Br)cc(Br)c1N)C1CCCCC1 [bromhexine]
3. CC(C)(Sc1cc(C(C)(C)C)c(O)c(C(C)(C)C)c1)Sc1cc(C(C)(C)C)c(O)c(C(C)(C)C)c1 [probucol]

Out:
[96.5, 90.7, 106]
